// cross-study collection: pKi for D(2) dopamine receptor (Homo sapiens)
pKi: −log10 of the molar value.

compound: O=c1c(-c2ccccc2F)c2n(c(=O)n1CCCCN1CCCC(c3c[nH]c4ccccc34)C1)CCCC2 (stereo not given)
pKi: < 5.00

compound: O=C(NCCCCN1CCN(c2ccccc2)CC1)c1ccc2ccccc2n1
pKi: < 6.00

compound: CN(CCC=C1c2ccccc2CCc2ccccc21)C(=O)c1ccc(OCCCN2CCCCC2)cc1
pKi: < 6.00

// lookup pKi for O=C(NCCCCN1CCN(c2ccc(F)cc2)CC1)c1cc2ccccc2cn1 < 6.00

Returns the measured pKi for the input compound. Input: COc1ccc2onc(N3CCN(CCCCNC(=O)c4cccc(-c5ncccn5)c4)CC3)c2c1 < 6.00
